Biological target: TrkB (Homo sapiens, UniProt Q16620)
Construct: The kinase domain of the human TrkB receptor (amino acids 526-838); His; purchased Invitrogen; host or cells: insect cells
Sequence (Q16620 510-822): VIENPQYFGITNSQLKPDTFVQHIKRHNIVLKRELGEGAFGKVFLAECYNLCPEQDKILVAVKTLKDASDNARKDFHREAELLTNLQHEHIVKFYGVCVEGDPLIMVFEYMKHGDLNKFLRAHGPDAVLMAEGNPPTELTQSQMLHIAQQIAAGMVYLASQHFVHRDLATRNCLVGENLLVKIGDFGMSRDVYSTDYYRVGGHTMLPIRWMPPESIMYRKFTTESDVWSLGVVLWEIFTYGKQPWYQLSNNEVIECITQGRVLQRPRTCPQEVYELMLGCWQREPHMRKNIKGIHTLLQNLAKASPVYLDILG
Test: TrkB tyrosine kinase assay (33P phosphorylation of polyGluTyr by recombinant enzyme)
Format: biochemical
Conditions: recombinant kinase domain of human TrkB (amino acids 526-838), PGT substrate, 30 uM ATP
The molecules listed here are annotated with their IC50.

[
  {
    "Molecule": "c1cc2c(Nc3cc(C4CC4)n[nH]3)nc(N[C@H]3CCNC3)nn2c1 [Compound 41]",
    "Measured On": "TrkB (Homo sapiens, UniProt Q16620)",
    "IC50 (µM)": 0.031
  },
  {
    "Molecule": "O=C(Nc1nccs1)[C@H](Cc1ccccc1)Nc1nc(Nc2cc(C3CC3)[nH]n2)c2cccn2n1 [Compound 44]",
    "Measured On": "TrkB (Homo sapiens, UniProt Q16620)",
    "IC50 (µM)": 0.002
  },
  {
    "Molecule": "Cc1cc(Nc2nc(NC3CCCCC3)nn3cccc23)[nH]n1 [Compound 9]",
    "Measured On": "TrkB (Homo sapiens, UniProt Q16620)",
    "IC50 (µM)": 0.225
  },
  {
    "Molecule": "C[C@H](Nc1nc(Nc2cc(-c3ccccc3)n[nH]2)c2cccn2n1)c1ccc(F)cc1 [Compound 28]",
    "Measured On": "TrkB (Homo sapiens, UniProt Q16620)",
    "IC50 (µM)": 0.0007
  },
  {
    "Molecule": "O=C(CNc1nc(Nc2cc(C3CC3)n[nH]2)c2cccn2n1)Nc1nccs1 [Compound 43]",
    "Measured On": "TrkB (Homo sapiens, UniProt Q16620)",
    "IC50 (µM)": 0.0003
  },
  {
    "Molecule": "C[C@H](Nc1nc(Nc2cc(C3CC3)n[nH]2)c2cccn2n1)c1ccc(F)cc1 [Compound 2]",
    "Measured On": "TrkB (Homo sapiens, UniProt Q16620)",
    "IC50 (µM)": 0.0003
  }
]

====

Molecular target: TrkA (Homo sapiens, UniProt P04629)
Construct: The kinase domain of the human TrkA receptor is expressed in Sf9 insect cells as a histidine (His)-fusion protein; His; made in house; host or cells: Sf9 insect cells (baculovirus)
Sequence (P04629 510-781 limits assumed): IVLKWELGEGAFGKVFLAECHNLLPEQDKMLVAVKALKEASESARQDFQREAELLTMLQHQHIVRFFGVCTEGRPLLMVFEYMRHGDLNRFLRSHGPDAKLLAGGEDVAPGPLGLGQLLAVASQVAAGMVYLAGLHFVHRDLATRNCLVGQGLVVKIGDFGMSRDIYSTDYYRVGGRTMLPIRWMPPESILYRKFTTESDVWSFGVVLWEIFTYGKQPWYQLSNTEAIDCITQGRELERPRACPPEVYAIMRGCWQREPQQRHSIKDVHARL
Experiment: TrkA tyrosine kinase assay (33P phosphorylation of polyGluTyr by recombinant enzyme)
Assay type: biochemical
Details: recombinant kinase domain of human TrkA, PGT substrate, 30 uM ATP
Kindly apply the following: yes (1) if IC50 is less than 0.006 µM, no (0) in every other case.

[
  {
    "Compound": "c1cc2c(Nc3cc(C4CC4)n[nH]3)nc(N[C@H]3CCNC3)nn2c1",
    "Label Class": "no (0)"
  },
  {
    "Compound": "O=C(CNc1nc(Nc2cc(C3CC3)n[nH]2)c2cccn2n1)Nc1nccs1",
    "Label Class": "yes (1)"
  },
  {
    "Compound": "C[C@H](Nc1nc(Nc2cc(-c3ccccc3)n[nH]2)c2cccn2n1)c1ccc(F)cc1",
    "Label Class": "yes (1)"
  },
  {
    "Compound": "Cc1cc(Nc2nc(NC3CCCCC3)nn3cccc23)[nH]n1",
    "Label Class": "no (0)"
  },
  {
    "Compound": "C[C@H](Nc1nc(Nc2cc(C3CC3)n[nH]2)c2cccn2n1)c1ccc(F)cc1",
    "Label Class": "yes (1)"
  },
  {
    "Compound": "CC(C)[C@H](CO)NC(=O)[C@H](C)Nc1nc(Nc2cc(C3CC3)n[nH]2)c2cccn2n1",
    "Label Class": "no (0)"
  },
  {
    "Compound": "O=C(Nc1nccs1)[C@H](Cc1ccccc1)Nc1nc(Nc2cc(C3CC3)[nH]n2)c2cccn2n1",
    "Label Class": "yes (1)"
  },
  {
    "Compound": "O[C@H]1CC[C@H](Nc2nc(Nc3cc(C4CC4)n[nH]3)c3cccn3n2)CC1",
    "Label Class": "yes (1)"
  },
  {
    "Compound": "CCC(O)CNc1nc(Nc2cc(C3CC3)n[nH]2)c2cccn2n1 (stereo not shown)",
    "Label Class": "yes (1)"
  }
]

====

Target: TrkB (Homo sapiens)
Construct: The kinase domain of the human TrkB receptor (amino acids 526-838); His; purchased Invitrogen; host or cells: insect cells
Test: TrkB tyrosine kinase assay (33P phosphorylation of polyGluTyr by recombinant enzyme)
Format: biochemical
Conditions: recombinant kinase domain of human TrkB (amino acids 526-838), PGT substrate, 30 uM ATP
# IC50 annotations

[
  {
    "Molecule": "CCC(O)CNc1nc(Nc2cc(C3CC3)n[nH]2)c2cccn2n1 (stereo not shown) [Compound 40]",
    "Measured On": "TrkB (Homo sapiens)",
    "IC50 [µM]": 0.004
  },
  {
    "Molecule": "CC(C)[C@H](CO)NC(=O)[C@H](C)Nc1nc(Nc2cc(C3CC3)n[nH]2)c2cccn2n1 [Compound 49]",
    "Measured On": "TrkB (Homo sapiens)",
    "IC50 [µM]": 0.005
  },
  {
    "Molecule": "NC1CCCC(Nc2nc(Nc3cc(C4CC4)n[nH]3)c3cccn3n2)C1 (stereo not shown) [Compound 12]",
    "Measured On": "TrkB (Homo sapiens)",
    "IC50 [µM]": 0.035
  },
  {
    "Molecule": "O[C@H]1CC[C@H](Nc2nc(Nc3cc(C4CC4)n[nH]3)c3cccn3n2)CC1 [Compound 38]",
    "Measured On": "TrkB (Homo sapiens)",
    "IC50 [µM]": 0.0009
  }
]
